Sourced from ChEMBL document CHEMBL1806461

target: Protein smoothened (Homo sapiens); test: Displacement of [125I]-PA cyclopamine from smoothened expressed in african green monkey COS-1 cells after 10 mins by autoradiography
Attribute: pIC50
Remember, pIC50 is on a log scale: it is -log10 of the molar concentration.

Worked set:
Give the measured pIC50 of O=C(Nc1ccnn1-c1ccccc1)N1CCN2C(=O)N([C@H]3C[C@@H]3c3ccccc3)C(=O)C2C1 (mixture of isomers) . 7.89

Which pIC50 reading was recorded for the compound Cc1cc(C#N)cc(Cl)c1NC(=O)N1CCN2C(=O)N([C@H]3C[C@@H]3c3ccccc3)C(=O)C2C1 (mixture of isomers) ? 7.08

Consider the compound shown here: CN(C(=O)N1CCN2C(=O)N([C@H]3C[C@@H]3c3ccccc3)C(=O)C2C1)c1ccccc1-c1ccccc1 (mixture of isomers) What is its recorded pIC50? 6.00

State the recorded pIC50 for this entry: COC(=O)c1cccc(NC(=O)N2CCN3C(=O)N([C@H]4C[C@@H]4c4ccccc4)C(=O)C3C2)c1Cl (mixture of isomers) 5.96

Looking for the measured pIC50 of COc1cccc(-c2ncccc2NC(=O)N2CCN3C(=O)N([C@H]4C[C@@H]4c4ccccc4)C(=O)C3C2)c1 (mixture of isomers) , can you help? 7.33

Next:
Entry under review: O=C(Nc1ccccc1-c1ccccc1)N1CCN2C(=O)N([C@H]3C[C@@H]3c3ccccc3)CC2C1 (mixture of isomers) . Reported pIC50? 5.85

Look up pIC50: `O=C(Nc1ccccc1-c1ccccc1)c1ccc2c(c1)C(=O)N([C@H]1C[C@@H]1c1ccccc1)C2=O` 5.49

Quick one: pIC50 for CC(C)c1ccccc1NC(=O)N1CCN2C(=O)N([C@H]3C[C@@H]3c3ccccc3)C(=O)C2C1 (mixture of isomers) ? 6.68

Entry O=C(Nc1ccccc1-c1ccccc1)N1CCN2C(=O)N([C@H]3C[C@@H]3c3ccccc3)C(=O)C2C1 (mixture of isomers) has what pIC50? 7.03

* * *

target: Protein smoothened (Homo sapiens, UniProt Q99835); experiment: Displacement of [125I]-PA cyclopamine from smoothened expressed in african green monkey COS-1 cells after 10 mins by autoradiography
Sequence (Q99835 whole entry): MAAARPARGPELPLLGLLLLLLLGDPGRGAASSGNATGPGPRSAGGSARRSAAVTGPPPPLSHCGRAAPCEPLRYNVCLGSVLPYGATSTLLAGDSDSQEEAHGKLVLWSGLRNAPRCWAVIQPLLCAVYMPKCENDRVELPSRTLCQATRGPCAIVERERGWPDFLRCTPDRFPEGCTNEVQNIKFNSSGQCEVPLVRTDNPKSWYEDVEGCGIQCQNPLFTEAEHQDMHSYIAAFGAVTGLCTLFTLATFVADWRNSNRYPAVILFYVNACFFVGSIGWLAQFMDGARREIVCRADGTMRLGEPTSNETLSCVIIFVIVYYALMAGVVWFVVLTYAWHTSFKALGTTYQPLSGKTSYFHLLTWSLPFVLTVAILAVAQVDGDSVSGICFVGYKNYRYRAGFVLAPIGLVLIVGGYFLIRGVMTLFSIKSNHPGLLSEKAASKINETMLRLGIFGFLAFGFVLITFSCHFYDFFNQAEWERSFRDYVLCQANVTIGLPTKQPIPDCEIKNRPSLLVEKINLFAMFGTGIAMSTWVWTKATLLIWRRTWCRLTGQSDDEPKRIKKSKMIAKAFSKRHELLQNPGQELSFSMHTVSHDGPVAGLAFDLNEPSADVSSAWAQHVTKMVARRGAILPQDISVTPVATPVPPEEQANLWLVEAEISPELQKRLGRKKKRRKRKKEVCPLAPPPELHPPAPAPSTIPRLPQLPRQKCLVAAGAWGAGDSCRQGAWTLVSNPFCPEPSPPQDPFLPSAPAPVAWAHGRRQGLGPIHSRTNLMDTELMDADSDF
pIC50: −log10 of the molar value.
I would appreciate it if you labelled entries true when pIC50 is 6 or higher, otherwise false.

State whether the measured pIC50 reaches 6, counting equality as reaching it, for N#Cc1cc(Cl)c(NC(=O)N2CCN3C(=O)N([C@H]4C[C@@H]4c4ccccc4)C(=O)C3C2)c(Cl)c1 (mixture of isomers) true

Is pIC50 for O=C(Nc1ccccc1-c1ccccc1)N1CCN2C(=O)N([C@H]3C[C@H]3c3ccccc3)C(=O)C2C1 (mixture of isomers) at or above 6? false

Is it the case that O=C(Nc1cccnc1-c1ccccc1Cl)N1CCN2C(=O)N([C@H]3C[C@@H]3c3ccccc3)C(=O)C2C1 (mixture of isomers) has pIC50 reaching or exceeding 6? true

In plain terms: is recorded pIC50 at least 6 for CN(C)C(=O)N1CCN2C(=O)N([C@H]3C[C@@H]3c3ccccc3)C(=O)C2C1 (mixture of isomers) ? false

* * *

Below, each entry is listed with its recorded IC50.
molecular target: UniProtKB Q99835; experiment: Displacement of [125I]-PA cyclopamine from smoothened expressed in african green monkey COS-1 cells after 10 mins by autoradiography
Supply the numeric figure in µM, leaving out any unit text.

Any idea what IC50 was measured for O=C(Nc1c(Cl)cc(F)cc1Cl)N1CCN2C(=O)N([C@H]3C[C@@H]3c3ccccc3)C(=O)C2C1 (mixture of isomers) ? 0.31

More entries:
I'd like to know its IC50. The compound in question is O=C(Nc1ccccc1-c1ccsc1)N1CCN2C(=O)N([C@H]3C[C@@H]3c3ccccc3)C(=O)C2C1 (mixture of isomers) 0.22

Which measured IC50 value corresponds to O=C(Nc1ccnn1-c1ccccc1)N1CCN2CC(=O)N([C@H]3C[C@@H]3c3ccccc3)C(=O)C2C1 (mixture of isomers) ? 5.1

* * *

test: Intrinsic clearance in rat liver microsomes assessed per mg of protein; assay type: ADME, Microsome
property.measured: microsomal CLint (µL/min/mg)
Write the value in µL/min/mg as a bare number.

Could you tell me which microsomal CLint is on file for O=C(Nc1cccc(Cl)c1Cl)N1CCN2C(=O)N([C@H]3C[C@@H]3c3ccccc3)C(=O)C2C1 (mixture of isomers) ? 180

* * *

target: Protein smoothened (Homo sapiens, UniProt Q99835); assay: Displacement of [125I]-PA cyclopamine from smoothened expressed in african green monkey COS-1 cells after 10 mins by autoradiography
// reported IC50 for each item listed
Quick note: unit goes after the number.

Field request: IC50 | item: O=C(Nc1ccc2c(c1)OCO2)N1CCN2C(=O)N([C@H]3C[C@@H]3c3ccccc3)C(=O)C2C1 (mixture of isomers) 0.7 µM

// lookup IC50 for CCCCN(CCCC)C(=O)N1CCN2C(=O)N([C@H]3C[C@@H]3c3ccccc3)C(=O)C2C1 (mixture of isomers) 0.92 µM

---
Fill in the blank: the reported IC50 of Cc1cccc(Cl)c1NC(=O)N1CCN2C(=O)N([C@H]3C[C@@H]3c3ccccc3)C(=O)C2C1 (mixture of isomers) is ____. 0.77 µM

* * *

target: Protein smoothened (Homo sapiens); assay: Displacement of [125I]-PA cyclopamine from smoothened expressed in african green monkey COS-1 cells after 10 mins by autoradiography
Just a reminder that ties go to False: only IC50 strictly below 0.9 µM counts as True.

Given O=C(Nc1ccccc1-c1ccccc1)N1CCN2C(=O)N(C3CC34CCCCC4)C(=O)C2C1 (racemic) , is recorded IC50 strictly lower than 0.9 µM? False

Threshold test, IC50 < 0.9 µM: O=C(Nc1ccccc1-c1ccccc1)N1CCN2C(=O)N(c3cccc4ccccc34)C(=O)C2C1 (racemic) False

Consider the compound COc1ccccc1NC(=O)N1CCN2C(=O)N([C@H]3C[C@@H]3c3ccccc3)C(=O)C2C1 (mixture of isomers) . Is its IC50 strictly less than 0.9 µM? False

IC50 strictly < 0.9 µM for this compound? O=C(Nc1c(Cl)cccc1Cl)N1CCN2C(=O)N([C@H]3C[C@@H]3c3ccccc3)C(=O)C2C1 (mixture of isomers) True

# strict comparison: is reported IC50 < 0.9 µM? input = O=C(C1CCCCC1)N1CCN2C(=O)N([C@H]3C[C@@H]3c3ccccc3)C(=O)C2C1 (mixture of isomers) False

* * *

target: Protein smoothened (Homo sapiens, UniProt Q99835); experiment: Displacement of [125I]-PA cyclopamine from smoothened expressed in african green monkey COS-1 cells after 10 mins by autoradiography
property.measured: pIC50
# log scale: pIC50 equals minus log10 of the concentration in mol/L

# example entries with known answers
Suppose we examine the molecule O=C(Nc1cccnc1-c1ccc(Cl)cc1)N1CCN2C(=O)N([C@H]3C[C@@H]3c3ccccc3)C(=O)C2C1 (mixture of isomers) ; what pIC50 value has been reported? 6.17

Look at this molecule and give its reported pIC50. O=C(Nc1ccnn1-c1ccccc1)N1CCN2C(=O)N([C@H]3C[C@@H]3c3ccccc3)C(=O)CC2C1 (mixture of isomers) 5.11

Given the molecule O=C(Nc1cc(Cl)cc(Cl)c1)N1CCN2C(=O)N([C@H]3C[C@@H]3c3ccccc3)C(=O)C2C1 (mixture of isomers) , what is its reported pIC50? 6.55

What value of measured pIC50 is listed for O=C(Nc1cccnc1-c1ccccc1)N1CCN2C(=O)N([C@H]3C[C@@H]3c3ccccc3)C(=O)C2C1 (mixture of isomers) ? 7.92

Would you kindly share the measured pIC50 for CC(C)(C)C(=O)N1CCN2C(=O)N([C@H]3C[C@@H]3c3ccccc3)C(=O)C2C1 (mixture of isomers) ? 5.40

Entry O=C(NC1CCCCC1)N1CCN2C(=O)N([C@H]3C[C@@H]3c3ccccc3)C(=O)C2C1 (mixture of isomers) has what pIC50? 6.60

Item under review: O=C(Nc1ccc(-c2ccccc2)cc1)N1CCN2C(=O)N([C@H]3C[C@@H]3c3ccccc3)C(=O)C2C1 (mixture of isomers) . Reported pIC50? 6.05

Given the entry O=C(Nc1cccnc1-c1cccc(C(F)(F)F)c1)N1CCN2C(=O)N([C@H]3C[C@@H]3c3ccccc3)C(=O)C2C1 (mixture of isomers) , report its measured pIC50. 6.80

***
# input molecule: Cc1c(Cl)cccc1NC(=O)N1CCN2C(=O)N([C@H]3C[C@@H]3c3ccccc3)C(=O)C2C1 (mixture of isomers) ; wanted: its pIC50 6.34

* * *

target: Protein smoothened (Homo sapiens, UniProt Q99835); test: Displacement of [125I]-PA cyclopamine from smoothened expressed in african green monkey COS-1 cells after 10 mins by autoradiography
property.measured: log10 of IC50 (log10 of the value in nM)
Log scale reminder: IC50 in nM, then log10 taken.

For orientation, consider the following solved cases.
What does the data say about its log10 of IC50? Entry: O=C(Nc1ccccc1-c1ccccc1)N1CCN2C(=O)N(C3Cc4ccccc4C3)C(=O)C2C1 (racemic) 2.94

// log10 of IC50 lookup, key: O=C(Nc1ccccc1-c1ccccc1)N1CCN2C(=O)N(CCc3ccccc3)C(=O)C2C1 (racemic) 3.30

Would you kindly share the measured log10 of IC50 for CCCCCCNC(=O)N1CCN2C(=O)N([C@H]3C[C@@H]3c3ccccc3)C(=O)C2C1 (mixture of isomers) ? 2.58

***
Item under review: O=C(Nc1ccccc1C(F)(F)F)N1CCN2C(=O)N([C@H]3C[C@@H]3c3ccccc3)C(=O)C2C1 (mixture of isomers) . Reported log10 of IC50? 2.95

Name the recorded log10 of IC50 for O=C(Nc1ccc(F)cc1Cl)N1CCN2C(=O)N([C@H]3C[C@@H]3c3ccccc3)C(=O)C2C1 (mixture of isomers) . 3.04

Entry under review: O=C(Nc1c(Cl)cc(OC(F)(F)F)cc1Cl)N1CCN2C(=O)N([C@H]3C[C@@H]3c3ccccc3)C(=O)C2C1 (mixture of isomers) . Reported log10 of IC50? 2.11

For the compound O=C(Nc1cccnc1-c1ccsc1)N1CCN2C(=O)N([C@H]3C[C@@H]3c3ccccc3)C(=O)C2C1 (mixture of isomers) , what log10 of IC50 is on record? 1.94

GET /values?readout=log10 of IC50&item= O=C(Nc1ccncc1-c1ccccc1)N1CCN2C(=O)N([C@H]3C[C@@H]3c3ccccc3)C(=O)C2C1 (mixture of isomers) 1.94

log10 of IC50 for O=C(Nc1ccccc1-c1ccccc1)N1CCN2C(=O)N([C@H]3C[C@H](c4ccccc4)C3)C(=O)C2C1 (mixture of isomers) ? 2.64

Returns the measured log10 of IC50 for the input compound. Input: O=C(Nc1cccnc1-c1cccc(Cl)c1)N1CCN2C(=O)N([C@H]3C[C@@H]3c3ccccc3)C(=O)C2C1 (mixture of isomers) 1.28

Which log10 of IC50 value belongs to CS(=O)(=O)c1cc(Cl)c(NC(=O)N2CCN3C(=O)N([C@H]4C[C@@H]4c4ccccc4)C(=O)C3C2)c(Cl)c1 (mixture of isomers) ? 1.89
